assay-overview: NCI Yeast Anticancer Drug Screen. Data for the mec2-1 strain (AID 157)
cond: S. cerevisiae mec2-1 strain, active compounds read high; at 50.0 µM unless noted
About 79,000 compounds went through this panel and 15% of them were active in at least one assay; those are over-represented in the sample as a whole.
parameter-measured: growth inhibition (%)
Your answer should be a plain number; it is taken to be in %.

> print(dat)
                                   molecule  unit.string  endpoint.value
1  O=C1c2ccccc2-c2c1c1ccccc1c(=O)n2-c1ccccc1            %           -26.1
2  C/C(=N\NC(=S)N1CCC(N2CCCCC2)CC1)c1ccccn1            %            88.1

Input: Return the recorded growth inhibition value; entry: `c1cc(-c2cnc(-c3ccc4c(c3)CCCO4)o2)ccn1`
Output: 29.9

Input: Return the recorded growth inhibition value; entry: `O=c1ccc2ccccc2cc1`
Output: -18.6

Input: Return the recorded growth inhibition value; entry: `CC(=O)Oc1cc(C)c(OC(C)=O)c2ccccc12`
Output: 17.7

Input: Return the recorded growth inhibition value; entry: CCC1CC2CC(c3cc4c(cc3OC)N(C)C3C(O)(C(=O)OC)C(OC(C)=O)C5(CC)C=CCN6CCC43C65)c3[nH]c4ccccc4c3CCN(C1)C2 (centres undefined)
Output: 14.3

Input: Return the recorded growth inhibition value; entry: O=[N+]([O-])c1ccc(Sc2ncnc3c2ncn3C2OC(CO)C(O)C2O)c2nonc12 (centres undefined)
Output: -12.4

Input: Return the recorded growth inhibition value; entry: COc1cc(C2NC(C(=O)O)CS2)cc(OC)c1OC (centres undefined)
Output: -14.7

Input: Return the recorded growth inhibition value; entry: CON1C(=O)C(c2ccccc2)c2ccccc21 (centres undefined)
Output: 22.6

Input: Return the recorded growth inhibition value; entry: `COc1ccccc1/C=C1\C(=O)N(C(=O)c2ccc(NC(C)=O)cc2)N=C1C`
Output: -27.1

Input: Return the recorded growth inhibition value; entry: `c1ccc2c3c([nH]c2c1)CCCC3`
Output: 1.2

Input: Return the recorded growth inhibition value; entry: COC1C(CO)OC(O)C(O)C1O (centres undefined)
Output: 2.25

Input: Return the recorded growth inhibition value; entry: CN(C(=O)c1ccc([N+](=O)[O-])cc1)C(c1ccco1)P(=O)(c1ccccc1)c1ccccc1 (centres undefined)
Output: 36.4

Input: Return the recorded growth inhibition value; entry: O=C1CC(Br)C(c2ccccc2)(c2ccccc2)O1 (centres undefined)
Output: 9.4

###

assay-overview: NCI Yeast Anticancer Drug Screen. Data for the cln2 rad14 strain (AID 165);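 also: 0% = growth equal to vehicle treated cultures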
cond: S. cerevisiae cln2 rad14 strain, active compounds read high; at 50.0 µM unless noted
This is part of a sample that, as a whole, favours compounds with a hit. Of some 79,000 tested, about 15% had one in any assay. Calls of active or inactive are those of the source. No stated cut-off is given here; in the data, active means growth inhibition above about 70%; inactive means the rest.
parameter-measured: growth inhibition

Answered cases to consult:
> print(dat)
                                   compound     endpoint.value
1  COC(=O)[C@]1(C)CCCC2(C)C1CC[C@H]1C=C(C)[C@H]3CCC12C3 (stereo partly drawn)    6.7% (inactive)
2                CCN(CCO)C(=O)Nc1ccc(Cl)cc1    8.6% (inactive)
3            ClCc1ccccc1C(c1ccccc1)c1ccccc1  -32.1% (inactive)
4  O=C(c1ccc(Cl)cc1)c1ccccc1C(=O)c1ccc(Cl)cc1  -4.45% (inactive)
5    CC1(C)CC2(Nc3ccccc3N2)C2=C(O1)C(=O)OC2   -1.3% (inactive)

Shift focus to the following entry.
Input: Return the recorded growth inhibition value; entry: `O=S1(=O)OCCOS(=O)(=O)C1Cc1nc2ccccc2[nH]1`
Output: 56.9% (inactive)

###

assay-overview: NCI Yeast Anticancer Drug Screen. Data for the rad50 strain (AID 155);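 also: 0% = growth of vehicle-only cultures of the same strain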
cond: S. cerevisiae rad50 strain growth inhibition, active compounds read high; at 50.0 µM unless noted
The panel holds about 79,000 compounds, 15% with a hit somewhere; the sample as a whole holds those more often.
Some molecules, each annotated with its measured growth inhibition.
Your answer should be a plain number; it is taken to be in %.

Answered cases to consult:
> print(dat)
                                 molecule  parameter.measured  endpoint.value
1                   CCOC(=O)Nc1ccc(F)cc1C   growth inhibition            14.8
2   O=C(O)CN(CCCN(CC(=O)O)CC(=O)O)CC(=O)O   growth inhibition              -5
3  O=C1C=CC(=O)N1c1ccnc(N2C(=O)C=CC2=O)c1   growth inhibition            21.4
4                  C=Nc1ccc(Nc2ccccc2)cc1   growth inhibition             5.7
5                       OCCc1ccc2ccccc2n1   growth inhibition            6.05
6             CCCCCCOS(=O)(=O)c1ccc(C)cc1   growth inhibition            23.1
7               C=C(C)C(C(=O)OCC)C(=O)OCC   growth inhibition             3.4
8                           NC1=CNC(=O)C1   growth inhibition            1.65

Input: Return the recorded growth inhibition value; entry: CC(=O)Oc1c(C)c2c(c3ncccc13)OC(C)C2 (centres undefined)
Output: 39.2

Input: Return the recorded growth inhibition value; entry: `Cc1cc(-c2cccc3ccccc23)[n+]([O-])cc1C`
Output: 15.6

Input: Return the recorded growth inhibition value; entry: CCNC(=O)c1ccccc1S(C)=O (centres undefined)
Output: -18.8

Input: Return the recorded growth inhibition value; entry: CCC1CC(C)=CCN1S(=O)(=O)c1ccc(C)cc1 (centres undefined)
Output: -12.6

Input: Return the recorded growth inhibition value; entry: `CCOC(=O)CC/C=N/Nc1ccc([N+](=O)[O-])cc1[N+](=O)[O-]`
Output: 20.6

Input: Return the recorded growth inhibition value; entry: `O=C(CC(=O)c1ccc(OC(=O)c2ccccc2)cc1O)c1ccccc1`
Output: -12.7

Input: Return the recorded growth inhibition value; entry: `Cn1c2ccccc2c2c3c(ccc21)C(=O)N(c1ccccc1)C3=O`
Output: 11.7

Input: Return the recorded growth inhibition value; entry: O=C(O)C1C2CCCC21 (centres undefined)
Output: -10.8

Input: Return the recorded growth inhibition value; entry: C(=N\N1CN(/N=C/c2ccccc2)C(c2ccccc2)C1c1ccccc1)/c1ccccc1 (centres undefined)
Output: -6.2

###

Some molecules, each annotated with its measured growth inhibition.
assay-overview: NCI Yeast Anticancer Drug Screen. Data for the rad50 strain (AID 155);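 also: 0% = growth of vehicle-only cultures of the same strain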
cond: S. cerevisiae rad50 strain growth inhibition, active compounds read high; at 50.0 µM unless noted
This is part of a sample that, as a whole, favours compounds with a hit. Of some 79,000 tested, about 15% had one in any assay.
Your answer should be a plain number; it is taken to be in %.

> print(dat)
                                   molecule  unit.string  endpoint.value
1        CN(C)C(=S)/N=c1\ssc(=S)n1Cc1ccccn1            %            3.05
2  COc1ccc(C(c2ccc(OC)cc2)N2C(=O)CCC2C(=O)O)cc1 (configuration not stated)            %           -28.6
3  CN1c2ccccc2N(C(=O)c2ccc(Cl)cc2)C(CC(=O)O)c2cccn21 (configuration not stated)            %            43.1
4      CCOc1c(N=Nc2cccc(Cl)c2)c(C)nn1C(N)=S            %            20.4
5  CC(=O)Nc1ccc(NC(=O)NCCCCCCNC(=O)Nc2ccc(NC(C)=O)cc2)cc1            %            -1.5

Input: Return the recorded growth inhibition value; entry: `Cc1ccccc1C(=O)c1ccccc1C`
Output: -16.3

Input: Return the recorded growth inhibition value; entry: `Cc1ccc(C(=O)/C=C/C(=O)c2ccc(C)cc2)cc1`
Output: 4.55

###

assay-overview: NCI Yeast Anticancer Drug Screen. Data for the mlh1 rad18 strain (AID 175)
cond: S. cerevisiae mlh1 rad18 strain growth inhibition, active compounds read high; at 50.0 µM unless noted
This is part of a sample that, as a whole, favours compounds with a hit. Of some 79,000 tested, about 15% had one in any assay.
parameter-measured: growth inhibition (%)
Your answer should be a plain number; it is taken to be in %.

Answered cases to consult:
compound	growth inhibition (%)
CCCCCCCCCCCCCCCCCC(=O)N/N=C\c1c(O)ccc2ccccc12	20.2
CCOC(=O)NC(=O)c1cn(CCOCCOC(=O)NCCCCCCNC(=O)OCCOCCn2cc(C(=O)NC(=O)OCC)c(=O)[nH]c2=O)c(=O)[nH]c1=O	29.6
CSc1nc(NC2OC(COC(C)=O)C(OC(C)=O)C(OC(C)=O)C2OC(C)=O)c(N=CC=Nc2c(NC3OC(COC(C)=O)C(OC(C)=O)C(OC(C)=O)C3OC(C)=O)nc(SC)[nH]c2=O)c(=O)[nH]1 (stereo not given)	5.75
CCOC(=O)c1cnc(NN)[nH]c1=O	-4.65
O=C(O)c1cc([N+](=O)[O-])cc2c(=O)c3cnccc3[nH]c12	-9.7

Input: Return the recorded growth inhibition value; entry: `COC(=O)C1=Nc2c(C)nn(-c3ccccc3)c2N=C(c2ccc([N+](=O)[O-])cc2)C1`
Output: 10.3

Input: Return the recorded growth inhibition value; entry: `CCc1ccc2c(c1)CCCC2(C)C`
Output: -0.05

Source of measurements: PubChem BioAssay (NCI)
